- target-system: OXA-48 (UniProt Q6XEC0)
- measurement-description: β-lactamase enzyme inhibition assay, Class D oxacillinase
- assay-setup: read-out: OXA-48
pIC50: −log10 of the molar value.
metric: pIC50

Answered examples (5):
[
  {
    "compound": "Nc1ccc(-c2cn(CC(=O)N[C@H]3Cc4cccc(C(=O)O)c4OB3O)nn2)cn1 [Example 74]",
    "pIC50": "6.00 to 7.00"
  },
  {
    "compound": "NC(=O)c1ncn(CC(=O)N[C@H]2Cc3cccc(C(=O)O)c3OB2O)n1 [Example 35]",
    "pIC50": "5.00 to 6.00"
  },
  {
    "compound": "NCc1cc(-c2cn(CC(=O)N[C@H]3Cc4cccc(C(=O)O)c4OB3O)nn2)cs1 [Example 55]",
    "pIC50": "6.00 to 7.00"
  },
  {
    "compound": "Cc1c(CN)nnn1CC(=O)N[C@H]1Cc2cccc(C(=O)O)c2OB1O [Example 106]",
    "pIC50": "> 7.00"
  },
  {
    "compound": "NCc1nnnn1CC(=O)N[C@H]1Cc2cccc(C(=O)O)c2OB1O [Example 17]",
    "pIC50": "6.00 to 7.00"
  }
]

Q: Which pIC50 value is on record for NCC#Cc1c(CN)nnn1CC(=O)N[C@H]1Cc2cccc(C(=O)O)c2OB1O [Example 109] ?
Ans: > 7.00

Q: Which pIC50 value is on record for O=C(Cn1cc([N+](=O)[O-])cn1)N[C@H]1Cc2cccc(C(=O)O)c2OB1O [Example 56] ?
Ans: 6.00 to 7.00

Q: Which pIC50 value is on record for NCCc1cn(CC(=O)N[C@H]2Cc3cccc(C(=O)O)c3OB2O)nn1 [Example 6] ?
Ans: 5.00 to 6.00

###

Items are presented alongside their recorded IC50.
- target-system: VIM-2 (Escherichia coli, UniProt Q5U7L7)
- Construct: made in house; host or cells: E. coli BL21(DE3)
- measurement-description: β-lactamase enzyme inhibition assay, VIM-2 (nitrocefin substrate)
- Assay type: biochemical
- assay-setup: Class B; nitrocefin substrate, 486 nm; read-out: VIM-2

[
  {
    "sample-smiles": "Nc1cc(-c2cn(CC(=O)N[C@H]3Cc4cccc(C(=O)O)c4OB3O)nn2)ccn1",
    "metric": "IC50",
    "endpoint-result": "0.1 to 1 µM"
  }
]

Q: Which IC50 value is on record for NCc1cn(C[C@H](N)C(=O)N[C@H]2Cc3cccc(C(=O)O)c3OB2O)nn1 ?
Ans: 1 to 10 µM

Q: Which IC50 value is on record for NCc1nc(CC(=O)N[C@H]2Cc3cccc(C(=O)O)c3OB2O)cs1 ?
Ans: 0.1 to 1 µM

Q: Which IC50 value is on record for O=C(Cn1cc(CNCCO)nn1)N[C@H]1Cc2cccc(C(=O)O)c2OB1O ?
Ans: < 0.1 µM

Q: Which IC50 value is on record for Cc1nnn(CC(=O)N[C@H]2Cc3cccc(C(=O)O)c3OB2O)c1CN ?
Ans: < 0.1 µM

Q: Which IC50 value is on record for CC(C)NCc1cn(CC(=O)N[C@H]2Cc3cccc(C(=O)O)c3OB2O)nn1 ?
Ans: < 0.1 µM

Q: Which IC50 value is on record for NCc1cnnn1CC(=O)N[C@H]1Cc2cccc(C(=O)O)c2OB1O ?
Ans: 0.1 to 1 µM

Q: Which IC50 value is on record for O=C(Cc1nnn(C2CNC2)n1)N[C@H]1Cc2cccc(C(=O)O)c2OB1O ?
Ans: < 0.1 µM

Q: Which IC50 value is on record for NCCCNC(=O)c1cn(CC(=O)N[C@H]2Cc3cccc(C(=O)O)c3OB2O)nn1 ?
Ans: < 0.1 µM

Q: Which IC50 value is on record for NCCn1cnc(C(=O)N[C@H]2Cc3cccc(C(=O)O)c3OB2O)n1 ?
Ans: 0.1 to 1 µM

Q: Which IC50 value is on record for NCCS(=O)(=O)NCc1cn(CC(=O)N[C@H]2Cc3cccc(C(=O)O)c3OB2O)nn1 ?
Ans: 0.1 to 1 µM

Q: Which IC50 value is on record for Nc1cnn(CC(=O)N[C@H]2Cc3cccc(C(=O)O)c3OB2O)c1 ?
Ans: 0.1 to 1 µM

Q: Which IC50 value is on record for N[C@H]1CCN(C(=O)c2cn(CC(=O)N[C@H]3Cc4cccc(C(=O)O)c4OB3O)nn2)C1 ?
Ans: < 0.1 µM

Q: Which IC50 value is on record for CN(C)CCn1nnnc1CC(=O)N[C@H]1Cc2cccc(C(=O)O)c2OB1O ?
Ans: 0.1 to 1 µM

Q: Which IC50 value is on record for O=C(Cc1nnn(CC2CCNCC2)n1)N[C@H]1Cc2cccc(C(=O)O)c2OB1O ?
Ans: 0.1 to 1 µM

Q: Which IC50 value is on record for O=C(Cn1nnnc1CC(=O)N[C@H]1Cc2cccc(C(=O)O)c2OB1O)N[C@H]1CCNC1 ?
Ans: < 0.1 µM

Q: Which IC50 value is on record for O=C(Cn1nnc(CN2CCOCC2)c1CN1CCOCC1)N[C@H]1Cc2cccc(C(=O)O)c2OB1O ?
Ans: 0.1 to 1 µM

###

Items are presented alongside their recorded IC50.
- target-system: KPC-2 (Klebsiella pneumoniae, UniProt Q9F663)
- Construct: made in house; host or cells: E. coli BL21(DE3)
- Sequence (Q9F663 25-293, looked up): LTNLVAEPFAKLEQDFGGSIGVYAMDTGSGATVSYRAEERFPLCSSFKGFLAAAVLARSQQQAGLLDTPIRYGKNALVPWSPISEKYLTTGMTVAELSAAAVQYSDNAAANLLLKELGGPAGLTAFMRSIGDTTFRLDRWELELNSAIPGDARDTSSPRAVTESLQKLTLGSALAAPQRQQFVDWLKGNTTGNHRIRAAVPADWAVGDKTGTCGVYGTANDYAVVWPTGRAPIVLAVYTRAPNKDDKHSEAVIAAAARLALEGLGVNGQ
- measurement-description: β-lactamase enzyme inhibition assay, KPC-2 (imipenem substrate)
- Format: biochemical
- assay-setup: Class A; imipenem substrate, 300 nm; read-out: KPC-2
- Experimental: For SHV-5, Kpc-2, p99AmpC and OXA-1 β-lactamases, E. coli BL21(DE3) bacterial cells carrying expression plasmids (expressed as native untagged proteins) for the individual β-lactamases were grown in 1 L of Superbroth (Teknova Inc. Hollister, Calif.) supplemented with 100 μg/ml kanamycin selection and 1×5052 (0.5% glycerol, 0.05% glucose and 0.2% α-lactose) at 35° C. for 18-20 hours. […]

[
  {
    "compound": "O=C(Cc1nnnn1CC1CCNCC1)N[C@H]1Cc2cccc(C(=O)O)c2OB1O [Example 98]",
    "target-system": "KPC-2 (Klebsiella pneumoniae, UniProt Q9F663)",
    "IC50": "< 0.1 µM"
  },
  {
    "compound": "N=C(N)NCc1nc(CC(=O)N[C@H]2Cc3cccc(C(=O)O)c3OB2O)cs1 [Example 24]",
    "target-system": "KPC-2 (Klebsiella pneumoniae, UniProt Q9F663)",
    "IC50": "< 0.1 µM"
  }
]

Q: Which IC50 value is on record for Nc1nnc(CC(=O)N[C@H]2Cc3cccc(C(=O)O)c3OB2O)[nH]1 [Example 20] ?
Ans: < 0.1 µM

Q: Which IC50 value is on record for CCN(CC)Cc1cn(CC(=O)N[C@H]2Cc3cccc(C(=O)O)c3OB2O)nn1 [Example 27] ?
Ans: < 0.1 µM

Q: Which IC50 value is on record for NCCc1nnn(CC(=O)N[C@H]2Cc3cccc(C(=O)O)c3OB2O)n1 [Example 103] ?
Ans: < 0.1 µM

Q: Which IC50 value is on record for CN(C)Cc1nnn(CC(=O)N[C@H]2Cc3cccc(C(=O)O)c3OB2O)c1CN(C)C [Example 38] ?
Ans: < 0.1 µM

Q: Which IC50 value is on record for NCCn1ncnc1CC(=O)N[C@H]1Cc2cccc(C(=O)O)c2OB1O [Example 119] ?
Ans: 0.1 to 1 µM

Q: Which IC50 value is on record for CNC(=O)c1cn(CC(=O)N[C@H]2Cc3cccc(C(=O)O)c3OB2O)nn1 [Example 79] ?
Ans: < 0.1 µM

Q: Which IC50 value is on record for O=C(Cc1nnnn1CCF)N[C@H]1Cc2cccc(C(=O)O)c2OB1O [Example 101] ?
Ans: < 0.1 µM

Q: Which IC50 value is on record for N[C@@H]1CCN(C(=O)c2cn(CC(=O)N[C@H]3Cc4cccc(C(=O)O)c4OB3O)nn2)C1 [Example 85] ?
Ans: 0.1 to 1 µM

Q: Which IC50 value is on record for NCc1nnnn1CC(=O)N[C@H]1Cc2cccc(C(=O)O)c2OB1O [Example 17] ?
Ans: < 0.1 µM

Q: Which IC50 value is on record for CC(C)(CN)CNC(=O)c1cn(CC(=O)N[C@H]2Cc3cccc(C(=O)O)c3OB2O)nn1 [Example 86] ?
Ans: < 0.1 µM

###

- target-system: KPC-2 (Klebsiella pneumoniae)
- Construct: made in house; host or cells: E. coli BL21(DE3)
- measurement-description: β-lactamase enzyme inhibition assay, KPC-2 (imipenem substrate)
- Format: biochemical
- assay-setup: Class A; imipenem substrate, 300 nm; read-out: KPC-2
pIC50: −log10 of the molar value.
metric: pIC50

[
  {
    "sample-smiles": "N=C(N)NCCCn1nnnc1CC(=O)N[C@H]1Cc2cccc(C(=O)O)c2OB1O",
    "pIC50": "> 7.00"
  },
  {
    "sample-smiles": "NC1CN(C(=O)c2cn(CC(=O)N[C@H]3Cc4cccc(C(=O)O)c4OB3O)nn2)C1",
    "pIC50": "> 7.00"
  },
  {
    "sample-smiles": "NCCCn1nnc(CC(=O)N[C@H]2Cc3cccc(C(=O)O)c3OB2O)n1",
    "pIC50": "> 7.00"
  },
  {
    "sample-smiles": "O=C(Cn1cc(-c2cccs2)nn1)N[C@H]1Cc2cccc(C(=O)O)c2OB1O",
    "pIC50": "> 7.00"
  },
  {
    "sample-smiles": "O=C(Cn1nnc(CO)c1CO)N[C@H]1Cc2cccc(C(=O)O)c2OB1O",
    "pIC50": "6.00 to 7.00"
  }
]

Let's switch to this compound now.
Q: Which pIC50 value is on record for O=C(Cn1cnnn1)N[C@H]1Cc2cccc(C(=O)O)c2OB1O ?
Ans: > 7.00
